// reported Excess HSA Score per item
- Tested on: MOLM14(D835Y) cells
- Assay type: cell-based
- experimental_conditions: MOLM14(D835Y) cells, 10 × 10; combination with SNDX-5613
recorded_metric: Excess HSA Score

>>> quantitative_readout("CC(O)(c1cn2c(-c3ccnc(N[C@H]4CNCC[C@@H]4F)n3)cnc2cn1)C(F)(F)F (single isomer, unassigned)")
"−77.23"
>>> quantitative_readout("COc1cc2ncc(-c3cncc(N[C@H]4CNCC[C@@H]4F)n3)n2nc1C1CC1")
"−279.3"
>>> quantitative_readout("F[C@H]1CCNC[C@@H]1Nc1cncc(-c2cnc3cc(OC4CC4)ccn23)n1")
"−187.4"

###

- tgt: FLT3 D835V (Homo sapiens, UniProt P36888, D835V)
- method: DiscoverX KINOMEscan competition binding, FLT3 D835V
recorded_metric: Kd (pM)

>>> quantitative_readout("COc1cc2ncc(-c3ccnc(N[C@H]4CNC[C@@H]4F)n3)n2nc1C1CC1")
60
>>> quantitative_readout("COc1cc2ncc(-c3ccnc(N[C@H]4CNCC[C@@H]4F)n3)n2nc1C1CC1")
110
>>> quantitative_readout("F[C@H]1CCNC[C@@H]1Nc1cncc(-c2cnc3cc(OC4CC4)ccn23)n1")
160

###

- tgt: FLT3 D835H (Homo sapiens, UniProt P36888, D835H)
- method: DiscoverX KINOMEscan competition binding, FLT3 D835H
recorded_metric: Kd

>>> result("COc1cc2ncc(-c3cncc(N[C@H]4CNC[C@@H]4F)n3)n2nc1C1CC1 [Compound 22]")
"0.87 nM"
>>> result("COc1cc2ncc(-c3cncc(N[C@H]4CNCC[C@@H]4F)n3)n2nc1C1CC1 [Compound 24]")
"0.33 nM"
>>> result("COc1cc2ncc(-c3ccnc(N[C@H]4CNC[C@@H]4F)n3)n2nc1C1CC1 [Compound 49]")
"0.46 nM"

###

- tgt: FLT3 (Homo sapiens, UniProt P36888)
- Sequence (P36888 610-943 limits assumed): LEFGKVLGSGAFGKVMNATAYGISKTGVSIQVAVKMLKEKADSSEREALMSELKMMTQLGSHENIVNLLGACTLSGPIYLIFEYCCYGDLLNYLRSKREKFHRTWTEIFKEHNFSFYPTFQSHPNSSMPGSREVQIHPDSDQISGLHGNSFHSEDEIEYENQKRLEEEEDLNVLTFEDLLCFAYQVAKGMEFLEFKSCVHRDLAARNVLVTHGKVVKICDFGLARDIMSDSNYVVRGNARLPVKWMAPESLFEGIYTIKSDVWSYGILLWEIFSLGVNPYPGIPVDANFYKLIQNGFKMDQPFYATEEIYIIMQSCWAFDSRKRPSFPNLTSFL
- method: RBC HotSpot Kinase Assay, FLT3
- experimental_conditions: FLT3 IC50
recorded_metric: IC50

>>> result("CC(C)Oc1ccn2c(-c3ccnc(N[C@@H]4CCCNC4)n3)cnc2c1 [Compound 26]")
"< 500 pM"
>>> result("F[C@H]1CNC[C@@H]1Nc1nccc(-c2cnc3cc(OC4CC4)ccn23)n1 [Compound 37]")
"< 500 pM"
>>> result("c1cn2c(-c3cncc(N[C@@H]4CCCNC4)n3)cnc2cc1OC1CC1 [Compound 11]")
"< 500 pM"
>>> result("FC(F)Oc1ccn2c(-c3ccnc(N[C@H]4CNC[C@@H]4F)n3)cnc2c1 [Compound 34]")
"< 500 pM"
>>> result("FC(F)COc1ccn2c(-c3ccnc(N[C@H]4CNC[C@@H]4F)n3)cnc2c1 [Compound 31]")
"< 500 pM"
>>> result("COc1cc2ncc(-c3cncc(N[C@@H]4CCCNC4)n3)n2cc1C(C)(C)O [Compound 20]")
"< 500 pM"
>>> result("CC(C)(O)c1ccc2ncc(-c3cncc(N[C@H]4CNCC[C@@H]4F)n3)n2c1 [Compound 18]")
"1000 pM"
>>> result("CC(C)(O)c1ccc2ncc(-c3ccnc(N[C@H]4CNC[C@@H]4F)n3)n2c1 [Compound 40]")
"< 500 pM"
>>> result("CC(C)Oc1ccn2c(-c3nccc(N[C@H]4CNC[C@@H]4F)n3)cnc2c1 [Compound 52]")
"5000 pM"
>>> result("COc1cc2ncc(-c3ccnc(N[C@@H]4CCCNC4)n3)n2cc1C(C)(O)C(F)(F)F (single isomer, unassigned) [Compound 57]")
"< 500 pM"
>>> result("COc1cc2ncc(-c3ccnc(N[C@H]4CNCC[C@@H]4F)n3)n2nc1C1CC1 [Compound 51]")
"< 500 pM"
>>> result("F[C@H]1CNC[C@@H]1Nc1cncc(-c2cnc3cc(OC4CC4)ccn23)n1 [Compound 10]")
"< 500 pM"
>>> result("CC(C)(O)c1ccc2ncc(-c3cncc(N[C@H]4CNC[C@@H]4F)n3)n2c1 [Compound 16]")
"5000 pM"
>>> result("FC(F)Oc1ccn2c(-c3ccnc(N[C@H]4CNCC[C@@H]4F)n3)cnc2c1 [Compound 36]")
"< 500 pM"
>>> result("COc1cc2ncc(-c3ccnc(N[C@@H]4CCCNC4)n3)n2nc1C1CC1 [Compound 50]")
"< 500 pM"
>>> result("COc1cc2ncc(-c3cncc(N[C@H]4CNC[C@@H]4F)n3)n2nc1C(C)(O)C(F)(F)F (single isomer, unassigned) [Compound 83]")
"1000 pM"
>>> result("CC(O)(c1cn2c(-c3ccnc(N[C@@H]4CCCNC4)n3)cnc2cn1)C(F)(F)F (single isomer, unassigned) [Compound 67]")
"< 500 pM"
>>> result("FC(F)COc1ccn2c(-c3ccnc(N[C@H]4CNCC[C@@H]4F)n3)cnc2c1 [Compound 33]")
"< 500 pM"
>>> result("F[C@H]1CCNC[C@@H]1Nc1cncc(-c2cnc3cc(OC4CC4)ccn23)n1 [Compound 12]")
"< 500 pM"
>>> result("COc1cc2ncc(-c3cncc(N[C@H]4CNCC[C@@H]4F)n3)n2nc1C1CC1 [Compound 24]")
"< 500 pM"
>>> result("CC(O)(c1cn2c(-c3ccnc(N[C@H]4CNC[C@@H]4F)n3)cnc2cn1)C(F)(F)F (single isomer, unassigned) [Compound 69]")
"< 500 pM"
>>> result("COc1cc2ncc(-c3cncc(N[C@@H]4CCCNC4)n3)n2cc1C(C)(O)C(F)(F)F (single isomer, unassigned) [Compound 63]")
"< 500 pM"
>>> result("CC(O)(c1cn2c(-c3cncc(N[C@@H]4CCCNC4)n3)cnc2cn1)C(F)(F)F (single isomer, unassigned) [Compound 74]")
"3000 pM"
